The measurements presented in this section are drawn from patent US20250177546A1.

Provide the reported EC50 of each item.
TGT: T1, huROR1-His (human ROR1 ECD AA30-406 with C-terminal His tag, made in house) (human, UniProt Q01973 30-406)
T1 construct: range 30-406; Expressed in HEK293; also called antigen protein huROR1-His; not shown: C-terminal His tag
MEASUREMENT NOTES: ELISA, huROR1-His coated plate, goat anti-human Fc-HRP, OD450
Answers are plain numbers, in ng/mL.

Would you please look over these solved cases?
{"BINDER": "B31-H2L2 (antibody, human IgG1, kappa, V domains shown) VH: EVQLVESGGGLVQPGGSLRLSCAASGFTFSRYAMSWVRQAPGKGLEWVASISRGGSTYYADSVKGRFTISRDNAKNTLYLQMSSLRAEDTAVYYCASYFGNYDAMDYWGQGTTVTVSS VL: DIQMTQSPSSLSASVGDRVTITCKASQDINNYVSWFQQKPGKAPKSLIYRANRLVDGVPSRFSGSGSGTDYTFTISSLQPEDFATYYCLQFDEFPYTFGGGTKLEIKR", "EC50 / ng/mL": 4.57}
{"BINDER": "B31-H2L3 (antibody, human IgG1, kappa, V domains shown) VH: EVQLVESGGGLVQPGGSLRLSCAASGFTFSRYAMSWVRQAPGKGLEWVASISRGGSTYYADSVKGRFTISRDNAKNTLYLQMSSLRAEDTAVYYCASYFGNYDAMDYWGQGTTVTVSS VL: DIQMTQSPSSLSASVGDRVTITCRASQDINNYVSWFQQKPGKAPKSLIYRANRLVSGVPSRFSGSGSGTDFTFTISSLQPEDFATYYCLQFDEFPYTFGGGTKLEIKR", "EC50 / ng/mL": 4.29}
{"BINDER": "B31 (chimeric antibody) (antibody, human IgG1, kappa, V domains shown, ExpiCHO expression) VH: EVMLVESGGGLVKPGGSLKLSCAASGFTFSRYAMSWVRQTPEKRLEWVASISRGGSTYYPDSVKGRFTISRDNARNILYLQMSSLRSEDTAMYYCASYFGNYDAMDYWGQGTSVTVSS VL: DIQMNQSPSSMYASLGERVTITCKASQDINNYVSWFQQKPGKSPKTLIYRANRLVDGVPSRFSGSGSGQDYSFTISSLEYEDMGIYYCLQFDEFPYTFGGGTKLEIKR", "EC50 / ng/mL": 2.12}

Here's the next entry for you.
Inquiry: What value of EC50 has been recorded for this entry: B31-H1L1 (antibody, human IgG1, kappa, V domains shown, also called B31-HIL1) VH: EVQLVESGGGLVQPGGSLRLSCAASGFTFSRYAMSWVRQTPGKRLEWVASISRGGSTYYPDSVKGRFTISRDNAKNTLYLQMSSLRAEDTAMYYCASYFGNYDAMDYWGQGTTVTVSS VL: DIQMTQSPSSLSASVGDRVTITCKASQDINNYVSWFQQKPGKAPKTLIYRANRLVDGVPSRFSGSGSGQDYTFTISSLQPEDFATYYCLQFDEFPYTFGGGTKLEIKR
Reply text: 3.24
